Molecular target: E. coli MurD (Escherichia coli)
Sequence (P14900 whole entry): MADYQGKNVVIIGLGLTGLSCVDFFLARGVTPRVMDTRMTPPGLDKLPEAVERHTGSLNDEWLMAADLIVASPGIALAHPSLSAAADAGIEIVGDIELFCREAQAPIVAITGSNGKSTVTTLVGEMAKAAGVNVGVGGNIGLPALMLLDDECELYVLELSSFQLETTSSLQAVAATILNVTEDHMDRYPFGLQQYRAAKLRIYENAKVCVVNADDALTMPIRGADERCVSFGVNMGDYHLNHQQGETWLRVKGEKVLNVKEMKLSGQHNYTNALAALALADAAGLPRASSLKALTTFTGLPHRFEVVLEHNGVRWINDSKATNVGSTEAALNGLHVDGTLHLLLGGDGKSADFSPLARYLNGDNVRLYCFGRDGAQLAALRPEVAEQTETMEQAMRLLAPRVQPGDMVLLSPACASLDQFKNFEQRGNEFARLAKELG
Experiment: biochemical
Conditions: 0.25 h, Table S1, PKIS screening; read-out: RA [%] at 100 µM MurD
Labelling field: enter Yes if recorded remaining activity at 100 µM is less than 80%. Enter No if it equals or exceeds that cut-off.

See these solved cases before continuing.
>>> class_name("Cc1ccc(Nc2ccnc(Nc3cccc(C(N)=O)c3)n2)cc1O [GW575808A]")
"No"
>>> class_name("Nc1nccc(C#Cc2cncnc2Nc2ccc(OCc3cccc(F)c3)c(Cl)c2)n1 [GW799251X]")
"Yes"

Ask: Is remaining activity at 100 µM strictly under 80% for the entry COc1ccccc1Nc1ncc(-c2ccccc2)o1 [GW577921A] ?
Result: No

Ask: Continue with COc1cc(N2CCN(C(C)C)CC2)ccc1Nc1nc(Nc2ccc(F)cc2C(=O)NC[C@@H](O)CO)c2cc[nH]c2n1 [GSK1392956A]
Result: Yes

Ask: Continue with CCCN(CCS(C)(=O)=O)Cc1ccc(-c2ccc3ncnc(Nc4ccc(OCc5cccc(F)c5)c(Cl)c4)c3c2)o1 [GW621823A]
Result: Yes
